- EXPERIMENTAL_TARGET: GDP-bound KRAS wild-type protein (Homo sapiens, UniProt P01116)
- PROTOCOL_DESCRIPTION: Binding to KRAS by surface plasmon resonance (SPR), Single Cycle Kinetics
- PARTICULARS: SPR, Single Cycle Kinetics; GDP-bound KRAS wild-type protein
ASSAY_METRIC: pKd
Scale note: pKd = -log10(concentration in M).

Query :: Consider the compound CCO[C@@H]1C[C@H]2C(=O)NC3(CC(F)(F)C3)C(=O)N(C)[C@@H](C3CCCC3)C(=O)N(C)C(C(C)C)CC(=O)N(C)[C@@H](CC3CC3)C(=O)N[C@@H]([C@@H](C)CC)C(=O)N(C)CC(=O)N(C)[C@H]3C/C=C\CCN(C3=O)[C@@H](Cc3ccc(C(F)(F)F)cc3)C(=O)N(C)CC(=O)N[C@@H](CCc3cc(F)c(C(F)(F)F)c(F)c3)C(=O)N2C1 (stereo partly drawn) and give its measured pKd.
Result :: 9.12

Query :: Next compound up: `CCCCCC[C@H]1C(=O)N[C@@H]([C@@H](C)CC)C(=O)N(C)CC(=O)N(C)[C@H]2C/C=C\CCN(C2=O)[C@@H](Cc2ccc(C(F)(F)F)cc2)C(=O)N(C)CC(=O)N[C@@H](CCc2cc(F)c(C(F)(F)F)c(F)c2)C(=O)N2C[C@H](OCC)C[C@H]2C(=O)NC2(CCC2)C(=O)N(C)[C@@H](C2CCCC2)C(=O)N(C)[C@H](C(=O)N(C)C)CC(=O)N1C`
Result :: 10.12

Query :: Next compound up: `CCCN1C(=O)CN(C)C(=O)CN(C)C(=O)[C@H]([C@@H](C)CC)NC(=O)[C@@H]2CCCCOc3ccc(cc3)C[C@H]1C(=O)N(C)CC(=O)N[C@@H](CCc1cc(F)c(C(F)(F)F)c(F)c1)C(=O)N1C[C@H](OCC)C[C@H]1C(=O)NC1(CCCC1)C(=O)N(C)[C@@H](C1CCCC1)C(=O)N(C)[C@H](C(=O)N(C)C)CC(=O)N2C`
Result :: 11.06

====

- Tested on: human lung cancer strain NCI-H441
ASSAY_METRIC: IC50 (nM)
Enter your answer as a number in nM; do not include the unit.

Query :: Consider the molecule CC[C@H](C)[C@@H]1NC(=O)[C@H](CC(C)C)N(C)C(=O)C[C@@H](C(=O)N(C)C)N(C)C(=O)[C@H](C2CCCC2)N(C)C(=O)C2(CCCC2)NC(=O)[C@@H]2CCCN2C(=O)[C@H](CCc2ccc(C(F)(F)F)c(Cl)c2)NC(=O)CN(C)C(=O)[C@H](Cc2ccc(C(F)(F)F)cc2)N2CC=C(C)C[C@@H](C2=O)N(C)C(=O)CN(C)C1=O [PP0621] and give its measured IC50.
Result :: 83.6

====

Entries and their IC50
- System: human lung cancer strain NCI-H441
- PROTOCOL_DESCRIPTION: cells
- PARTICULARS: NCI-H441, 96 h, read-out: NCI-H441 IC50 (nM)
Enter your answer as a number in nM; do not include the unit.

Worked examples, 2 molecules total:
Query :: # query: IC50 | item `CCO[C@@H]1C[C@H]2C(=O)NC3(CCC3)C(=O)N(C)[C@@H](C3CCCC3)C(=O)N(C)[C@H](C(=O)N(C)C)CC(=O)N(C)[C@@H](CC)C(=O)N[C@@H](C(C)C)C(=O)N(C)CC(=O)N(C)[C@H]3C/C=C\CCN(C3=O)[C@@H](Cc3ccc(C(F)(F)F)cc3)C(=O)N(C)CC(=O)N[C@@H](CCc3cc(F)c(C(F)(F)F)c(F)c3)C(=O)N2C1` | system: human lung cancer strain NCI-H441
Result :: 53.5

Query :: Next molecule up: `CCO[C@@H]1C[C@H]2C(=O)NC3(CCC3)C(=O)N(C)[C@@H](C3CCCC3)C(=O)N(C)[C@H](C(=O)N3CCOCC3)CC(=O)N(C)[C@@H](CC(C)C)C(=O)N[C@@H]([C@@H](C)CC)C(=O)N3CC[C@H]3C(=O)N(C)[C@H]3C[C@@H](C)[C@@H](C)CN(C3=O)[C@@H](Cc3ccc(C(F)(F)F)cc3)C(=O)N(C)CC(=O)N[C@@H](CCc3cc(F)c(C(F)(F)F)c(F)c3)C(=O)N2C1`
Result :: 10.2

Others:
Query :: # query: IC50 | item `CCO[C@@H]1C[C@H]2C(=O)NC3(CCC3)C(=O)N(C)[C@@H](C3CCCC3)C(=O)N(C)[C@H](C(=O)N3CCOCC3)CC(=O)N(C)[C@@H](CC3CC3)C(=O)N[C@@H]([C@@H](C)CC)C(=O)N(C)CC(=O)N(C)[C@H]3C/C=C\CCN(C3=O)[C@@H](Cc3ccc(C(F)(F)F)cc3)C(=O)N(C)CC(=O)N[C@@H](CCc3cc(F)c(C(F)(F)F)c(F)c3)C(=O)N2C1` | system: human lung cancer strain NCI-H441
Result :: 42.6

====

Entries and their Kd
- EXPERIMENTAL_TARGET: GDP-bound KRAS wild-type protein (Homo sapiens, UniProt P01116)
- PROTOCOL_DESCRIPTION: Binding to KRAS by surface plasmon resonance (SPR), Single Cycle Kinetics
- PARTICULARS: SPR, Single Cycle Kinetics; GDP-bound KRAS wild-type protein

Query :: Consider the molecule `CCO[C@@H]1C[C@H]2C(=O)NC3(CCC3)C(=O)N(C)[C@@H](C3CCCC3)C(=O)N(C)[C@H](C(=O)N(C)C)CC(=O)N(C)[C@@H](CC)C(=O)N[C@@H]([C@@H](C)CC)C(=O)N(C)CC(=O)N(C)[C@H]3CCCCCN(C3=O)[C@@H](Cc3ccc(F)cc3F)C(=O)N(C)CC(=O)N[C@@H](CCc3cc(F)c(C(F)(F)F)c(F)c3)C(=O)N2C1` and give its measured Kd.
Result :: 0.29 nM

Others:
Query :: Consider the molecule `CC[C@H](C)[C@@H]1NC(=O)[C@H](CC)N(C)C(=O)C[C@@H](C(=O)N(C)C)N(C)C(=O)[C@H](C2CCCC2)N(C)C(=O)C2(CCC2)NC(=O)[C@@H]2CC(F)(F)CN2C(=O)[C@H](CCc2cc(F)c(C(F)(F)F)c(F)c2)NC(=O)CN(C)C(=O)[C@H](CC2CCCCC2)N2CC/C=C\C[C@@H](C2=O)N(C)C(=O)CN(C)C1=O` and give its measured Kd.
Result :: 0.12 nM

Query :: Next molecule up: `CCO[C@@H]1C[C@H]2C(=O)NC3(CCC3)C(=O)N(C)[C@@H](C3CCCC3)C(=O)N(C)[C@H](C(=O)N(C)C)CC(=O)N(C)[C@@H](CC3CC3)C(=O)N[C@@H]([C@@H](C)CC)C(=O)N(C)CC(=O)N(C)[C@H]3C/C=C\CCN(C3=O)[C@@H](CC3CCC(F)(F)CC3)C(=O)N(C)CC(=O)N[C@@H](CCc3cc(F)c(C(F)(F)F)c(F)c3)C(=O)N2C1`
Result :: 0.12 nM

====

- EXPERIMENTAL_TARGET: GDP-bound KRAS wild-type protein (Homo sapiens)
- PROTOCOL_DESCRIPTION: Binding to KRAS by surface plasmon resonance (SPR), Single Cycle Kinetics
- PARTICULARS: SPR Single Cycle Kinetics, GDP-bound KRAS wild-type protein, 1:1 binding model
Entries and their Kd
Enter your answer as a number in nM; do not include the unit.

Query :: Consider the molecule `CCO[C@@H]1C[C@H]2C(=O)NC3(CCC3)C(=O)N(C)[C@@H](C3CCCC3)C(=O)N(C)[C@H](C(=O)N(C)CC)CC(=O)N(C)[C@H]3CCCC/C=C/c4ccc(cc4)C[C@@H](C(=O)N(C)CC(=O)N[C@@H](CCc4ccc(C(F)(F)F)c(OC)c4)C(=O)N2C1)N1CC/C=C\C[C@@H](C1=O)N(C)C(=O)CN(C)C(=O)[C@H]([C@@H](C)CC)NC3=O` and give its measured Kd.
Result :: 0.039

Others:
Query :: Consider the molecule `CC[C@H](C)[C@@H]1NC(=O)[C@@H](CC(C)C)N(C)C(=O)CSC[C@H](C(=O)N(C)C)N(C)C(=O)[C@@H](C2CCCC2)N(C)C(=O)C2(CCCC2)NC(=O)[C@@H]2CCCN2C(=O)[C@H](CCc2cc(F)c(C(F)(F)F)c(F)c2)NC(=O)CN(C)C(=O)[C@H](Cc2ccc(C(F)(F)F)cc2)N2CC=CC[C@@H](C2=O)N(C)C(=O)CN(C)C1=O` and give its measured Kd.
Result :: 870

====

Assay read-out IC50; system under study: human lung cancer strain NCI-H441.
*1 amine or outer side, *2 acyl side, *3 side chain or, on linkers, in order; H or OH if unused. Where a SMILES comes first, the peptide text is derived from it. Bridges are numbered along the chain shown (N, C = ends). [ ]: non-standard residue; d: D form. The star is where a group is joined. dhPhe(3-Cl,4-CF3) = N[C@H](CCc1ccc(C(F)(F)F)c(Cl)c1)C(=O)O; X3 = C=CCN([C@H](Cc1ccccc1)C(=O)[*:2])[*:1]; NMeGly(cPent) = CN[C@H](C(=O)O)C1CCCC1; NMeNle(5-ene) = C=CCC[C@H](NC)C(=O)O; NMeD = CN[C@@H](CC(=O)O)C(=O)O; NMeL = CN[C@@H](CC(C)C)C(=O)O; Morpholide = C1CN(*)CCO1; Ac5c = NC1(C(=O)O)CCCC1; Sar = CNCC(=O)O
Enter your answer as a number in nM; do not include the unit.

Worked examples, 2 compounds total:
Query :: Consider the compound `CCO[C@@H]1C[C@H]2C(=O)NC3(CCC3)C(=O)N(C)[C@@H](C3CCCC3)C(=O)N(CC)[C@H](C(=O)N3CCOCC3)CC(=O)N(C)[C@@H](CC)C(=O)N[C@@H]([C@@H](C)CC)C(=O)N(C)CC(=O)N(C)[C@H]3CCCCCN(C3=O)[C@@H](Cc3ccc(F)cc3)C(=O)N(C)CC(=O)N[C@@H](CCc3cc(F)c(C(F)(F)F)c(F)c3)C(=O)N2C1` and give its measured IC50.
Result :: 92

Query :: Next compound up: C=CCC[C@H]1C(=O)N(CC=C)[C@H](Cc2ccccc2)C(=O)N(C)CC(=O)N[C@H](CCc2ccc(C(F)(F)F)c(Cl)c2)C(=O)N2CCC[C@H]2C(=O)NC2(CCCC2)C(=O)N(C)[C@@H](C2CCCC2)C(=O)N(C)[C@H](C(=O)N2CCOCC2)CC(=O)N(C)[C@@H](CC(C)C)C(=O)N[C@@H]([C@@H](C)CC)C(=O)N(C)CC(=O)N1C [PP0599] ([NMeL]I[Sar][NMeNle(5-ene)][X3][Sar][dhPhe(3-Cl,4-CF3)]P[Ac5c][NMeGly(cPent)][NMeD]-Morpholide; lactam N-11)
Result :: 2800

// below: IC50 requested for another compound
Query :: Consider the compound `CC[C@H](C)[C@@H]1NC(=O)[C@H](CC(C)C)N(C)C(=O)C[C@@H](C(=O)N(C)C)N(C)C(=O)[C@H](C2CCCC2)N(C)C(=O)C2(CC(C)(C)C2)NC(=O)[C@@H]2C[C@H](C)CN2C(=O)[C@H](CCc2ccc(C(F)(F)F)c(OC)c2)NC(=O)CN(C)C(=O)[C@H](Cc2ccc(C)cc2)N2CC/C=C\C[C@@H](C2=O)N(C)C(=O)CN(C)C1=O` and give its measured IC50.
Result :: 6.7
